Ratio Ki: recorded values
species: Homo sapiens; assay: Selectivity ratio of Ki for JAK2 (unknown origin) to Ki for JAK1 (unknown origin)
Note: the reply should be a number with no unit written.

Per the record, COC(=O)N[C@@H]1CC[C@@H](n2nnc3cnc4[nH]ccc4c32)C1 (racemic) has Ratio Ki of 2.8

Per the record, c1ccc(CN2CCC(n3nnc4cnc5[nH]ccc5c43)CC2)cc1 has Ratio Ki of 2

Per the record, c1cncc(CN2CCC(n3nnc4cnc5[nH]ccc5c43)CC2)c1 has Ratio Ki of 1.7

Per the record, c1cc2c(ncc3nnn(C4CCNCC4)c32)[nH]1 has Ratio Ki of 3.2

Per the record, COC(=O)N[C@H]1CC[C@H](n2nnc3cnc4[nH]ccc4c32)CC1 has Ratio Ki of 2.3

Per the record, F[C@@H]1CNCC[C@H]1n1nnc2cnc3[nH]ccc3c21 (racemic) has Ratio Ki of 2.7

Per the record, CC1(n2nnc3cnc4[nH]ccc4c32)CCN(CCC#N)CC1 has Ratio Ki of 3.1

Per the record, c1ccc(CN2CCC[C@@H](n3nnc4cnc5[nH]ccc5c43)C2)cc1 has Ratio Ki of 1.6

Per the record, F[C@H]1CNCC[C@H]1n1nnc2cnc3[nH]ccc3c21 (racemic) has Ratio Ki of 2.3

Per the record, CC(C)(C)OC(=O)N[C@@H]1CC[C@@H](n2nnc3cnc4[nH]ccc4c32)C1 has Ratio Ki of 4.2
